Source of measurements: patent US20250049798A1

target: HiBiT tagged Wee1 (Homo sapiens, UniProt P30291); test: Wee1 protein degradation assay (HiBiT assay); assay type: cell-based; settings: engineered HT-1080 cells, 20 hours
Sequence (P30291 whole entry): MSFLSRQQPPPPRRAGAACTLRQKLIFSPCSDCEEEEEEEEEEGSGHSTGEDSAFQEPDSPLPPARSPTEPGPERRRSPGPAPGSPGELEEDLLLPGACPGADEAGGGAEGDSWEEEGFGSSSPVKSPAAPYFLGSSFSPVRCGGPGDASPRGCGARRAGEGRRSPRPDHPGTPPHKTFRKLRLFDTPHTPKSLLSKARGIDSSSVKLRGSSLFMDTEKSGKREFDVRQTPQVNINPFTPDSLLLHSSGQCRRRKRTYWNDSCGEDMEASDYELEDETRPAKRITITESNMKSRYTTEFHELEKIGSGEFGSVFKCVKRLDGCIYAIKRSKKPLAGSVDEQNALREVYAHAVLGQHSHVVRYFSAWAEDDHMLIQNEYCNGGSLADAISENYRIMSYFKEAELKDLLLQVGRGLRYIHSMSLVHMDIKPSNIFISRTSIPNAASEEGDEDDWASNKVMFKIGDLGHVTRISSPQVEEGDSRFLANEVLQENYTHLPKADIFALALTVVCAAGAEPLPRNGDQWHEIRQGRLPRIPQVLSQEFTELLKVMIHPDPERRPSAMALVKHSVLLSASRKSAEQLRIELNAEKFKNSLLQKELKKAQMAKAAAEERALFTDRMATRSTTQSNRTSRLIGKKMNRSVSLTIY
Each entry below carries its recorded DC50.

Could you please provide reported DC50 for C=CCn1c(=O)c2cnc(Nc3ccc(N4CCN(CC5CCN(c6ccc(NC7CCC(=O)NC7=O)cc6F)CC5)CC4)cc3)nc2n1-c1ccc2c(n1)[C@@](C)(O)CC2 (some centres unmarked) [Compound 113] ? Thanks!
< 100 nM

Read the entry C=CCn1c(=O)c2cnc(Nc3ccc(N4CCN(CC5CCN(c6cc7c(cc6F)c(N6CCC(=O)NC6=O)nn7C)CC5)CC4)cc3)nc2n1-c1ccc2c(n1)[C@](C)(O)CC2 [Compound 196] and write its reported DC50.
< 100 nM

Supply DC50 value. Item: C=CCn1c(=O)c2cnc(Nc3ccc(N4CCN(CCCCc5ccc6c(c5)n(C)c(=O)n6C5CCC(=O)NC5=O)CC4)cc3)nc2n1-c1cccc(C(C)(C)O)n1 (centres unmarked) [Compound 47]
100 to 1000 nM

Annotate the molecule C=CCn1c(=O)c2cnc(Nc3ccc(N4CCN(CC5CCN(c6ccc(NC7CCC(=O)NC7=O)cc6F)CC5)CC4)cc3)nc2n1-c1ccc2c(n1)[C@@](O)(CC)CC2 (single isomer, unassigned) [Compound 150-A] with its measured DC50.
< 100 nM

Quickly give me recorded DC50 for C=CCn1c(=O)c2cnc(Nc3ccc(N4CCN(CC5CCN(c6cccc7c(C8CCC(=O)NC8=O)nn(C)c67)CC5)CC4)cc3)nc2n1-c1cccc(C(C)(C)O)n1 (centres unmarked) [Compound 117]
< 100 nM

Quickly give me recorded DC50 for C=CCn1c(=O)c2cnc(Nc3ccc(N4CCN(CC5CCN(c6ccc7c(N8CCC(=O)NC8=O)nn(C)c7c6)CC5)CC4)c(C)c3)nc2n1-c1ccc2c(n1)[C@@](O)(CC)CC2 [Compound 129]
< 100 nM

Tell me its DC50 given COc1ccc(C(=O)N2CCC(OC3CCN(Cc4ccc(Nc5ncc6c(=O)n(-c7c(Cl)cccc7Cl)c7nccn7c6n5)cc4)CC3)CC2)cc1N1CCC(=O)NC1=O [Compound 60] as the entry.
> 1000 nM

Answer with the recorded DC50 for the molecule listed here: C=CCn1c(=O)c2cnc(Nc3ccc(N4CCN(CC5CCN(c6ccc(NC7CCC(=O)NC7=O)cc6F)CC5)CC4)cc3)nc2n1-c1cccc(OC)n1 (centres unmarked) [Compound 205]
< 100 nM

Please look at this molecule and report its DC50: C=CCn1c(=O)c2cnc(Nc3ccc(N4CCC(CN5CCN(c6cc7c(cc6F)c(N6CCC(=O)NC6=O)nn7C)CC5)CC4)cc3)nc2n1-c1ccc2c(n1)[C@@](O)(CC)CC2 [Compound 201]
< 100 nM

Give the reported value of DC50 for this record: Cc1cc(Nc2ncc3c(n2)N(C)CN(c2c(Cl)cccc2Cl)C3=O)ccc1C1CCN(CC2CCN(c3cccc4c3C(=O)N(C3CCC(=O)NC3=O)C4=O)CC2)CC1 (centres unmarked) [Compound 19]
> 1000 nM

Give DC50 for C=CCn1c(=O)c2cnc(Nc3ccc(N4CCC(CN5CCC(c6cccc7c6n(C)c(=O)n7C6CCC(=O)NC6=O)CC5)CC4)cc3)nc2n1-c1ccc2c(n1)[C@](O)(CC)CC2 (some centres unmarked) [Compound 53]
> 1000 nM

Tell me its DC50 given C=CCn1c(=O)c2cnc(Nc3ccc(N4CCN(CC5CCN(c6ccc7c(N8CCC(=O)NC8=O)nn(C)c7c6)CC5)[C@H](C)C4)cc3)nc2n1-c1ccc2c(n1)[C@@](O)(CC)CC2 [Compound 174] as the entry.
< 100 nM
